- Organism: Rattus norvegicus
- Measurement Description: Open TG-GATES - Regimen: Single
- Assay type: toxicity, organism-based, Sprague-Dawley
- Set-up: regimen Single, gender Male, age 6 weeks
- Test Context: in vivo, po, 0 mg/kg, 3 h, tissue Kidney, route gavage, dose level Control
Kindly state KIDNEY_TOTAL for each of the entries shown.
The number alone won't do; follow it with the unit.

Please give the measured KIDNEY_TOTAL for this molecule: CCCCNC(=O)NS(=O)(=O)c1ccc(C)cc1 [TOLBUTAMIDE] 1.8 g

How about this molecule: O=c1ccc2ccccc2o1 1.7 g

How about this molecule: CN(C/C=C/C#CC(C)(C)C)Cc1cccc2ccccc12 2.1 g

----------
- Species: Rattus norvegicus
- Measurement Description: Open TG-GATES - Regimen: Daily Repeat
- Format: toxicity, organism-based, Sprague-Dawley
- Parameters: regimen Daily Repeat, gender Male, age 6 weeks
- Test Context: in vivo, po, 100 mg/kg, […], tissue Plasma, route gavage, dose level Low, time 28 day
Kindly state Ca for each of the entries shown.
The number alone won't do; follow it with the unit.

Please give the measured Ca for this molecule: CCCCNC(=O)NS(=O)(=O)c1ccc(C)cc1 [TOLBUTAMIDE] 10.7 mg/dL

How about this molecule: CC(S)C(=O)NCC(=O)O (centres undefined) 10.8 mg/dL

How about this molecule: CC(=O)[C@@]1(O)CC[C@H]2[C@@H]3C=C(Cl)C4=CC(=O)CC[C@]4(C)[C@H]3CC[C@@]21C 10.5 mg/dL

How about this molecule: O=C(O)c1ccccc1Nc1ccccc1 11 mg/dL

----------
- Species: Rattus norvegicus
- Measurement Description: Open TG-GATES - Regimen: Single
- Assay type: toxicity, organism-based, Sprague-Dawley
- Design: regimen Single, gender Male, age 6 weeks
- Test Context: in vivo, po, 0 mg/kg, 9 h, tissue Plasma, route gavage, dose level Control
Endpoint Name: GLC
The number alone won't do; follow it with the unit.

Please give the measured GLC for this compound: NS(=O)(=O)c1cc(C(=O)O)c(NCc2ccco2)cc1Cl [FUROSEMIDE] 182.8 mg/dL

How about this compound: Nc1ccc(Cc2ccc(N)cc2)cc1 174.2 mg/dL

How about this compound: CCN(CC)C(=S)SSC(=S)N(CC)CC 198.8 mg/dL

How about this compound: CN(CCOc1ccc(CC2SC(=O)NC2=O)cc1)c1ccccn1.O=C(O)/C=C\C(=O)O (centres undefined) [ROSIGLITAZONE MALEATE] 184 mg/dL

How about this compound: CC(S)C(=O)NCC(=O)O (centres undefined) 195.8 mg/dL

How about this compound: O=c1ccc2ccccc2o1 190.8 mg/dL

How about this compound: CC(=O)[C@@]1(O)CC[C@H]2[C@@H]3C=C(Cl)C4=CC(=O)CC[C@]4(C)[C@H]3CC[C@@]21C 202.6 mg/dL

How about this compound: CCO 196.2 mg/dL

How about this compound: CN(C)CCCN1c2ccccc2Sc2ccc(Cl)cc21 203.4 mg/dL

----------
- Organism: Rattus norvegicus
- Measurement Description: Open TG-GATES - Regimen: Daily Repeat
- Type: toxicity, organism-based, Sprague-Dawley
- Parameters: regimen Daily Repeat, gender Male, age 6 weeks
- Test Context: in vivo, po, 300 mg/kg, […], tissue Plasma, route gavage, dose level Middle, time 14 day
Endpoint Name: RALB (g/dL)
The reply should contain only the number, in g/dL.

Please give the measured RALB for this compound: CC(S)C(=O)NCC(=O)O (centres undefined) [TIOPRONIN] 3.1

How about this compound: O=C(O)c1ccccc1Nc1ccccc1 [FENAMIC ACID] 2.8

How about this compound: CCCCNC(=O)NS(=O)(=O)c1ccc(C)cc1 [TOLBUTAMIDE] 2.7

How about this compound: CC(=O)[C@@]1(O)CC[C@H]2[C@@H]3C=C(Cl)C4=CC(=O)CC[C@]4(C)[C@H]3CC[C@@]21C [CHLORMADINONE] 3.1
